Test system: pEGFR Ba/F3 (EGFR Δ19del/T790M/C797S) cells
Assay: Cell phosphorylation inhibition experiment, pEGFR Ba/F3 (EGFR Δ19del/T790M/C797S)
Assay type: cell-based
Conditions: Ba/F3 EGFR; Ba/F3 cells, EGF stimulated; read-out: Effect on cellular EGFR phosphorylation Ba/F3(Δ19del/T790M/C797S) IC50
Measured IC50, listed per entry.
The number alone won't do; follow it with the unit.

Exam item: Jot down IC50 (pEGFR Ba/F3 (EGFR Δ19del/T790M/C797S) cells) of COc1cc(N2CCC3(CC2)CN(C)C3)c(C)cc1Nc1ncc(Cl)c(Nc2ccc3cnn(C)c3c2P(C)(C)=O)n1 .
Marked response: 1720 nM

Exam item: Jot down IC50 (pEGFR Ba/F3 (EGFR Δ19del/T790M/C797S) cells) of COc1cc(N2CCC(N3CCN(C)CC3)CC2)ccc1Nc1ncc(Br)c(Nc2ccc3nccnc3c2P(C)(C)=O)n1 .
Marked response: 271 nM

Exam item: Jot down IC50 (pEGFR Ba/F3 (EGFR Δ19del/T790M/C797S) cells) of COc1cc(N2CCC(N3CCN(C)CC3)CC2)c(C)cc1Nc1ncc(Cl)c(Nc2ccc3nccnc3c2P(C)(C)=O)n1 .
Marked response: 58 nM

Exam item: Jot down IC50 (pEGFR Ba/F3 (EGFR Δ19del/T790M/C797S) cells) of COc1cc(N2CCC3(CC2)CN(C)C3)c(C)cc1Nc1ncc(Cl)c(Nc2ccc3nccnc3c2P(C)(C)=O)n1 .
Marked response: 133 nM
